Known IC50 of a selection of compounds
target: sigma receptor (Cavia porcellus); experiment: In vitro binding affinity measured on sigma opioid receptor using [3H]DTG as radioligand
Provide the measurement as a number trailed by its unit.

The cases that follow already have their IC50 on record.
Compound: COc1ccc2c(c1)C(CCCN1CCN(c3ccccn3)CC1)CCC2 (stereo unspecified)
IC50: 125 nM
--
Compound: COc1ccc2c(c1)C(SCCN1CCN(c3ccccc3OC)CC1)CCC2 (stereo unspecified)
IC50: 138 nM
--
Compound: COc1ccc2c(c1)C(CCCN1CCN(c3ccccn3)CC1)=CCC2
IC50: 246 nM
--
Compound: COc1ccc2c(c1)C(CCCN1CCN(c3ccccc3OC)CC1)=CCC2
IC50: 228 nM
--
Compound: COc1ccccc1N1CCN(CC/C=C2\CCCc3c(OC)cccc32)CC1
IC50: 52.2 nM

Enquiry: Determine from records and report IC50 for `COc1ccccc1N1CCN(CC/C=C2\CCCc3ccccc32)CC1`
Return: 55 nM
